# Tested on: 242566-281-R-J2-PDC complex spheroid viability
# Test Method Notes: Anticancer human tumor 242566-281-R-J2-PDC patient-derived pancreatic carcinoma cell line growth inhibition [RAS]
# Test Context: curve of first compound; second compound 0.000949 µM
Below: a set of entries, each annotated with reported IC50.
Endpoint: IC50

CC(=O)OC12COC1CC(O)C1(C)C(=O)C(O)C3=C(C)C(OC(=O)C(O)C(NC(=O)OC(C)(C)C)c4ccccc4)CC(O)(C(OC(=O)c4ccccc4)C21)C3(C)C (centres undefined) + CCn1c(-c2cc(N3CCN(C)CC3)cnc2C(C)OC)c2c3cc(ccc31)-c1csc(n1)CC(NC(=O)C1CC1C)C(=O)N1CCCC(N1)C(=O)OCC(C)(C)C2	< 31.6 nM
C=CC(=O)N1CCN(c2nc(OCC3CCCN3C)nc3c(F)c(-c4nc(N)cc(C)c4C(F)(F)F)c(Cl)cc23)C(C)C1 (centres undefined) + CCn1c(-c2cc(N3CCN(C)CC3)cnc2C(C)OC)c2c3cc(ccc31)-c1csc(n1)CC(NC(=O)C1CC1C)C(=O)N1CCCC(N1)C(=O)OCC(C)(C)C2	> 1000 nM
NC1c2ccccc2OC12CCN(c1cnc3c(N4CCCc5ncccc54)n[nH]c3n1)CC2 (centres undefined) + CCn1c(-c2cc(N3CCN(C)CC3)cnc2C(C)OC)c2c3cc(ccc31)-c1csc(n1)CC(NC(=O)C1CC1C)C(=O)N1CCCC(N1)C(=O)OCC(C)(C)C2	50.8 nM
CCN1CCN(Cc2ccc(Nc3ncc(F)c(-c4cc(F)c5nc(C)n(C(C)C)c5c4)n3)nc2)CC1 + CCn1c(-c2cc(N3CCN(C)CC3)cnc2C(C)OC)c2c3cc(ccc31)-c1csc(n1)CC(NC(=O)C1CC1C)C(=O)N1CCCC(N1)C(=O)OCC(C)(C)C2	> 1000 nM

----------
# System: 242566-281-R-J2-PDC complex spheroid viability
# Test Method Notes: Anticancer human tumor 242566-281-R-J2-PDC cell line growth inhibition [RAS];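 note: spheroids exposed to compound for 7 days before readout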;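 for viability, T/C: 100% = DMSO vehicle control wells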
# Test Context: second compound 0.3 µM; first compound 0.1 µM; stronger effect = lower value
Below: a set of entries, each annotated with reported viability, T/C.
Endpoint: viability, T/C (%)

CCC(CC)c1cc(NC2CCC(N)C2)n2nccc2n1 (centres undefined) + CCn1c(-c2cccnc2C(C)OC)c2c3cc(ccc31)N1CCOC(CC(NC(=O)C(C(C)C)N(C)C(=O)C3(F)CCN(C(=O)C#CC(C)(C)N(C)C)CC3)C(=O)N3CCCC(N3)C(=O)OCC(C)(C)C2)C1	89.8
C=CC(=O)N1CCN(c2nc(OCC3CCCN3C)nc3c(F)c(-c4nc(N)cc(C)c4C(F)(F)F)c(Cl)cc23)C(C)C1 (centres undefined) + CCn1c(-c2cccnc2C(C)OC)c2c3cc(ccc31)N1CCOC(CC(NC(=O)C(C(C)C)N(C)C(=O)C3(F)CCN(C(=O)C#CC(C)(C)N(C)C)CC3)C(=O)N3CCCC(N3)C(=O)OCC(C)(C)C2)C1	75.7
Cc1nc(N2CCC3(CC2)COC(C)C3N)c(CO)nc1Sc1ccnc(N)c1Cl (centres undefined) + CCn1c(-c2cc(N3CCN(C)CC3)cnc2C(C)OC)c2c3cc(ccc31)-c1csc(n1)CC(NC(=O)C1CC1C)C(=O)N1CCCC(N1)C(=O)OCC(C)(C)C2	18.1
C[C@@H](NC(=O)c1ncnc(N)c1Cl)c1ncc(C(=O)Nc2cc(C(F)(F)F)c(Cl)cn2)s1 + CCn1c(-c2cccnc2C(C)OC)c2c3cc(ccc31)N1CCOC(CC(NC(=O)C(C(C)C)N(C)C(=O)C3(F)CCN(C(=O)C#CC(C)(C)N(C)C)CC3)C(=O)N3CCCC(N3)C(=O)OCC(C)(C)C2)C1	84.5

# credit: PubChem BioAssay AID2060910
